All figures here come from paper PMC3817407.

target-under-test: T1, ECF17_1691
T1 chain: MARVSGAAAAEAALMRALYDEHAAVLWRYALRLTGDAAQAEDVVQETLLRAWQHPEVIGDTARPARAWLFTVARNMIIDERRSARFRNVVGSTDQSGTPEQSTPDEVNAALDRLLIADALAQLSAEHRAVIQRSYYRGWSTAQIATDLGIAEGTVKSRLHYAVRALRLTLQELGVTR
property: fold repression
Give only the figure.

Data request: What value of measured fold repression is listed for AS27_1331 (protein) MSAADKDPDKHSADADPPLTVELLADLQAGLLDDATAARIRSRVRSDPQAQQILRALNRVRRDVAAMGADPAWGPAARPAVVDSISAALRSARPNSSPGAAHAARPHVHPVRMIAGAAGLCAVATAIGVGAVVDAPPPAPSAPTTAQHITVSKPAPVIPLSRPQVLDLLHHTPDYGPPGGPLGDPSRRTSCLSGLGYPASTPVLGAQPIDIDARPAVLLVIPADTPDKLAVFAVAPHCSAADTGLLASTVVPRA ?
Data returned: 2.09

Data request: What value of measured fold repression is listed for AS22_1147 (protein) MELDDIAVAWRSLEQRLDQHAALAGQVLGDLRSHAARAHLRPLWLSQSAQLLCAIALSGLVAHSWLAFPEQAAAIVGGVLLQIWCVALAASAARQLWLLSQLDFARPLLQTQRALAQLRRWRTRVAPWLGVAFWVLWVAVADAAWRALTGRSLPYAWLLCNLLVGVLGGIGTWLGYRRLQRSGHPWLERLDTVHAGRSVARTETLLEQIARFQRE ?
Data returned: 1.74

Data request: What value of measured fold repression is listed for AS04_1609 (protein) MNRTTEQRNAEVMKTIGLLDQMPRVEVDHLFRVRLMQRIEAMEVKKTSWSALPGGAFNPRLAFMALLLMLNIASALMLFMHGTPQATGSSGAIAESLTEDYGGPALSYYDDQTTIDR ?
Data returned: 1.22
